These measurements were taken from ChEMBL document CHEMBL5126500.

molecular target: Bromodomain-containing protein 4 (Homo sapiens, UniProt O60885); assay: Inhibition of BRD4 BD1 (unknown origin)
property measured: pIC50
Just the number, please; pIC50 means minus log10 of the concentration in mol/L.

Need pIC50, item C#CCSc1nc2nc(C)cc(Nc3cc(-c4ccccc4)[nH]n3)n2n1
5.67

====

molecular target: Poly [ADP-ribose] polymerase 1 (Homo sapiens); experiment: Inhibition of PARP1 (unknown origin) using NAD+ as substrate incubated for 30 mins by fluorescence based assay
Sequence (P09874 whole entry): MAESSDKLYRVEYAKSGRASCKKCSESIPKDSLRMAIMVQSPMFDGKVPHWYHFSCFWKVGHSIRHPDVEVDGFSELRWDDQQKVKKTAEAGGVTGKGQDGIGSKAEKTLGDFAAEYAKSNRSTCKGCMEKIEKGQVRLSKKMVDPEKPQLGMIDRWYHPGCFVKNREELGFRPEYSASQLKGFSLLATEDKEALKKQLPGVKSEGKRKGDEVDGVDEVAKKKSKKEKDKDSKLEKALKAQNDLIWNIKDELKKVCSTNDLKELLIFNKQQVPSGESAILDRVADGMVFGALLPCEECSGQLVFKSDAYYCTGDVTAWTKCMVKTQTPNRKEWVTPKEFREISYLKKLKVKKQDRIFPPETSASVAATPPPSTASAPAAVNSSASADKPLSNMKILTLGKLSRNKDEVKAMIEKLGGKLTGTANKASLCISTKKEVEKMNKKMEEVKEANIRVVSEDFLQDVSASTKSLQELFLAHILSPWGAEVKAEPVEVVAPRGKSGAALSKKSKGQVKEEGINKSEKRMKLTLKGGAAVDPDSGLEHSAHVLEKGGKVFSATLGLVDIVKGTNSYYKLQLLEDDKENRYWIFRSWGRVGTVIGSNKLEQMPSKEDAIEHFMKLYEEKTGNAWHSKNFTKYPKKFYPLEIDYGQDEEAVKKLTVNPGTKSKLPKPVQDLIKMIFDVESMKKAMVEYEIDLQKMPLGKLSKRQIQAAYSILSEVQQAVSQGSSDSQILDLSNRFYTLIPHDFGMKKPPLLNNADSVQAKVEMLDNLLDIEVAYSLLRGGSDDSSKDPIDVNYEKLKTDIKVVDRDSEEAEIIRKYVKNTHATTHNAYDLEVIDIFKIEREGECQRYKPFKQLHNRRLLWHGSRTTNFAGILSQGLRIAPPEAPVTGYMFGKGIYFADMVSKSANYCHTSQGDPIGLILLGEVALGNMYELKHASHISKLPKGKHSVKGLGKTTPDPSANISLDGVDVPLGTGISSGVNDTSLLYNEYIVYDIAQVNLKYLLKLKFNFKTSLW
property measured: IC50 (nM)
Your answer is read as nM, so omit the unit and give the number.

For the compound CC(c1nc2c(C(N)=O)cccc2[nH]1)N1CC(=O)N(c2ccc(C(F)(F)F)cc2)C1=S (stereo unspecified) , what IC50 is on record?
25

====

target: CDK6/cyclin D3 (Homo sapiens, UniProt Q00534); assay: Binding affinity to CDK6/Cyclin D3 (unknown origin) assessed as inhibition constant by radiometric assay
Sequence (P30281 whole entry): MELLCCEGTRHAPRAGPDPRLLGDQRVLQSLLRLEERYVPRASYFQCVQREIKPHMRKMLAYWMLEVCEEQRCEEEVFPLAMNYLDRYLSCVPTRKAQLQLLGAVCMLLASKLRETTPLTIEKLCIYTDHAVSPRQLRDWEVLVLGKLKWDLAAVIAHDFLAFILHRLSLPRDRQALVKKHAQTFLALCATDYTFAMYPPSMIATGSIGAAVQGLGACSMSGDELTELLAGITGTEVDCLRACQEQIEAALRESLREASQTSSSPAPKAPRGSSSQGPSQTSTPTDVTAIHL
Sequence (Q00534 whole entry): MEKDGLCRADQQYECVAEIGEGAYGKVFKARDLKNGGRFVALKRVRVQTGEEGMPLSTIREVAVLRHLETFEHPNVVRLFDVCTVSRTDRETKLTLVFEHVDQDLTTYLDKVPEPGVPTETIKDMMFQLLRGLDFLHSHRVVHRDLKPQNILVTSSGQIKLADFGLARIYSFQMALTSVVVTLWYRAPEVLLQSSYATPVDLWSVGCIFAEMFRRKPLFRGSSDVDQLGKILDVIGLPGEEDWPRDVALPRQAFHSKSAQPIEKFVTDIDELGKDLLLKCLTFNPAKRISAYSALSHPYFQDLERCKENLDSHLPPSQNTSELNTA
property measured: pKi
Please report pKi as the negative decimal logarithm of the molar concentration, giving only the number.

Fill blank: measured pKi of the compound CC(=O)N1N=C(c2c(O)c3ccccc3oc2=O)CC1c1ccccc1Cl (stereo unspecified) is ____.
7.87

====

target: Histone deacetylase 8 (Homo sapiens); assay: Inhibition of human recombinant HDAC8 using BML-KI178-0005 as substrate incubated for 10 mins by fluorescence based assay
Sequence (Q9BY41 whole entry): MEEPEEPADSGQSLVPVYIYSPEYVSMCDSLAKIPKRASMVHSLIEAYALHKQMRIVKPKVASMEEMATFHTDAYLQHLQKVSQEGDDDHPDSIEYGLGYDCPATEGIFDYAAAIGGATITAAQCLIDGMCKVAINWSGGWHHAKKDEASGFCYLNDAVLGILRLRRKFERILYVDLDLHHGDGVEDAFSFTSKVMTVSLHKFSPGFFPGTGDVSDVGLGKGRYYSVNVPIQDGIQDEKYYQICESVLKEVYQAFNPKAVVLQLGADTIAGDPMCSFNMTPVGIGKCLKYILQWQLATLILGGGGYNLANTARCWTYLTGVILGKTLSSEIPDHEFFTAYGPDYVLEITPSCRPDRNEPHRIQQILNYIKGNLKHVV
property measured: IC50 (µM)
Form entry: value (µM) — number only.

What IC50 value was documented for this molecule, O=C(CCN1CCN(C(=O)Nc2ccnc3ccccc23)CC1)NO ?
1.74
